From: patent US20240309095A1

- target desc: T1, human B7-H4 (purified monomeric recombinant human protein, ACRO biosystems) (human, UniProt Q7Z7D3 29-258, limits assumed, chemically biotinylated (EZ-Link NHS-LC-Biotin) in the yeast display and competition experiments; non-biotinylated in SPR)
- T1 construct: Bought recombinant monomeric protein; also called B7x; B7S1
- T1 sequence: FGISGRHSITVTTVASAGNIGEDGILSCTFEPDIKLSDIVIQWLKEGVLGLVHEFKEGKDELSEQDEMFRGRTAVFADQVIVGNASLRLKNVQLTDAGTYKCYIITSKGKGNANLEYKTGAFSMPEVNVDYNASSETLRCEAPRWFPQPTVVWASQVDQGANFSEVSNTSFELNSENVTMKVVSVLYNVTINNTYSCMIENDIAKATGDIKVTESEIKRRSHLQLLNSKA
- method: SPR (Carterra LSA); scFv-Fc captured on anti-human IgG Fc, antigen injected
- Protocol: Finally, the affinity of the 24 clones was determined using high-throughput surface plasmon resonance (SPR). The supernatants were arrayed by non-covalent capture in a medium-density SPR chip previously coupled with an anti-human polyclonal antibody and (at least 4 replicates per clone). Non-biotinylated antigen was used for all affinity measurements and sensorgrams were fitted using a pseudo-first-order kinetic model (Lundström 1994). […]
// values below are reported KD fold-improvement
assay metric: KD fold-improvement (fold over parental)

>>> number("G05 scFv-Fc (scFv, V domains shown, Tested as scFv-Fc fusion (human IgG1 Fc, vector pDNL9) in crude yeast supernatant; Combo 1 library; also called G5) VH: EVQLVESGGGVVQPGRSLRLSCAASGFTFSSRSMNWVRQAPGKGLEWVSAISGSGSTVYYADSVKGRFTISRDNSKNTLYLQMNSLRAEDTAVYYCARKRWYGMDVWGQGTTVTVSS VL: SYELTQPPSVSVAPGKTARITCGGNKLGDKWVHWYQQKPGQAPVLVVYEDVDRPSGIPERFSGSNSGNTATLTISRVEAGDEADYYCQVWDSRTYVFGTGTKLTVL")
119
>>> number("B03 scFv-Fc (scFv, V domains shown, Tested as scFv-Fc fusion (human IgG1 Fc, vector pDNL9) in crude yeast supernatant; Combo 1 library) VH: EVQLVESGGGVVQPGRSLRLSCAASGFTFGDRAMNWVRQAPGKGLEWVSAISGSGSGTYYADSVKGRFTISRDNSKNTLYLQMNSLRAEDTAVYYCARKRWYGMDVWGQGTTVTVSS VL: SYELTQPPSVSVAPGKTARITCGGNNIGMKSVHWYQQKPGQAPVLVVYDDSDRPSGIPERFSGSNSGNTATLTISRVEAGDEADYYCQVWDRGMIFGTGTKLTVL")
106
>>> number("B01 scFv-Fc (scFv, V domains shown, Tested as scFv-Fc fusion (human IgG1 Fc, vector pDNL9) in crude yeast supernatant; Combo 1 library) VH: EVQLVESGGGVVQPGRSLRLSCAASGFTFSDRAMNWVRQAPGKGLEWVSAISYEGRTQYYADSVKGRFTISRDNSKNTLYLQMNSLRAEDTAVYYCARKRWYGMDVWGQGTTVTVSS VL: SYELTQPPSVSVAPGKTARITCGGNNIGVKSVHWYQQKPGQAPVLVVYDDSDRPSGIPERFSGSNSGNTATLTISRVEAGDEADYYCQVWDSRTYVFGTGTKLTVL")
231
>>> number("B12 scFv-Fc (scFv, V domains shown, Tested as scFv-Fc fusion (human IgG1 Fc, vector pDNL9) in crude yeast supernatant; Combo 2 library) VH: EVQLVESGGGVVQPGRSLRLSCAASGFTFSDRAMNWVRQAPGKGLEWVSAISGTGASTYYADSVKGRFTISRDNSKNTLYLQMNSLRAEDTAVYYCARKRWYGMDVWGQGTTVTVSS VL: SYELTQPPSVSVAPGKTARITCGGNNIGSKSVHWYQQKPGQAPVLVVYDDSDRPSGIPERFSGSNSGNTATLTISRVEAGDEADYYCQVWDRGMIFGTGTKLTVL")
89
